Every entry's value here was drawn from the RNAGym collection of RNA variant scans (doi:10.7554/elife.80360).

B1: Hairpin Ribozyme (parent)
chain: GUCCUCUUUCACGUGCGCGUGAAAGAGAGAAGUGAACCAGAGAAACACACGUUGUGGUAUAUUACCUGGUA

variants of: B1; test: self-cleavage, relative activity (ratio to wild type); higher = more cleavage; co-transcriptional
Assignment: determine reported self-cleavage for the given variants.
A bare number is all that is needed in reply.

Query: Look at this variant and give its reported self-cleavage. G19U C46G
Result: 0.157

Query: Look at this variant and give its reported self-cleavage. A45C A71G
Result: 0.154

Query: Look at this variant and give its reported self-cleavage. U2G C48U
Result: 0.117

Query: Look at this variant and give its reported self-cleavage. A31U A49G
Result: 0.121

Query: Look at this variant and give its reported self-cleavage. G15U G69C
Result: 0.434

Query: Look at this variant and give its reported self-cleavage. C4U A28G
Result: 0.458

Query: Look at this variant and give its reported self-cleavage. G1A C3U
Result: 0.136

Query: Look at this variant and give its reported self-cleavage. C38U A39C
Result: 0.152

Query: Look at this variant and give its reported self-cleavage. C6G A36G
Result: 0.768

Query: Look at this variant and give its reported self-cleavage. C38A A45U
Result: 0.143

Query: Look at this variant and give its reported self-cleavage. C46A U60A
Result: 0.0649

Query: Look at this variant and give its reported self-cleavage. G17C G29U
Result: 0.134

Query: Look at this variant and give its reported self-cleavage. U2A A28U
Result: 0.136

Query: Look at this variant and give its reported self-cleavage. G15C A28C
Result: 0.407

Query: Look at this variant and give its reported self-cleavage. C37A U62C
Result: 0.196

Query: Look at this variant and give its reported self-cleavage. A28U U53A
Result: 0.845

Query: Look at this variant and give its reported self-cleavage. G25C G32C
Result: 0.116

Query: Look at this variant and give its reported self-cleavage. C3A A47C
Result: 0.239

Query: Look at this variant and give its reported self-cleavage. U9C A31U
Result: 0.153

Query: Look at this variant and give its reported self-cleavage. A44C G69C
Result: 0.141

Query: Look at this variant and give its reported self-cleavage. G40C G57U
Result: 0.106

Query: Look at this variant and give its reported self-cleavage. U14A C50A
Result: 0.13
